- assay system: PPARγ (GAL4-hPPARγ LBD) (Homo sapiens)
- Construct: Receptor expression plasmid (GAL4-hPPARα, LBD GAL4-hPPARγ LBD, GAL4-hPPARδ LBD); expressed in transfected cells; host or cells: CV-1 cells
- Sequence (P37231 238-503 limits assumed): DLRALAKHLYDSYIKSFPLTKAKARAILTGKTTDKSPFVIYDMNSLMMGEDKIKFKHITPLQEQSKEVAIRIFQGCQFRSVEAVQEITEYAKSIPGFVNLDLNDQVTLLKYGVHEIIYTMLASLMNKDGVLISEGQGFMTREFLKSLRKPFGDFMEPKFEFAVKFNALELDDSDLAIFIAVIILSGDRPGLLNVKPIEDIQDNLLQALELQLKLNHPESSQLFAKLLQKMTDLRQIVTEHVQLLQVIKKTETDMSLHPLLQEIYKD
- protocol notes: PPARγ transactivation activity (GAL4 chimera luciferase reporter in CV-1 cells)
- Assay type: cell-based
- run parameters: compound at 10^−7 M (value without parentheses)
Can you tell me Relative activity for PPAR transactivation, γ for the items I'm about to list?

Worked examples, 2 compounds total:
Return reported Relative activity for PPAR transactivation, γ for target or system PPARγ (GAL4-hPPARγ LBD) (Homo sapiens), item Cc1cc(OCC(=O)O)ccc1C(=O)CCc1sc(-c2ccc(C(F)(F)F)cc2)nc1C(C)C . 0 % of control

Return reported Relative activity for PPAR transactivation, γ for target or system PPARγ (GAL4-hPPARγ LBD) (Homo sapiens), item Cc1cc(OC(C)(C)C(=O)O)ccc1C(=O)CCc1sc(-c2ccc(C(F)(F)F)cc2)nc1C(C)C . 3 % of control

Could I get Relative activity for PPAR transactivation, γ for every one of these entries?
1. CC(C)c1nc(-c2ccc(C(F)(F)F)cc2)sc1CCC(=O)c1ccc(OC(C)(C)C(=O)O)c(Cl)c1
2. Cc1cc(C(=O)CCc2sc(-c3ccc(C(F)(F)F)cc3)nc2C(C)C)ccc1OC(C)C(=O)O (stereo not drawn)
3. Cc1cc(C=CCc2sc(-c3ccc(C(F)(F)F)cc3)nc2C(C)C)ccc1OC(C)(C)C(=O)O
4. C=CCc1cc(C(=O)CCc2sc(-c3ccc(C(F)(F)F)cc3)nc2C(C)C)ccc1OCC(=O)O

1: 3 % of control; 2: 5 % of control; 3: 17 % of control; 4: 2 % of control

* * *

- assay system: PPARγ (GAL4-hPPARγ LBD) (Homo sapiens)
- Construct: Receptor expression plasmid (GAL4-hPPARα, LBD GAL4-hPPARγ LBD, GAL4-hPPARδ LBD); expressed in transfected cells; host or cells: CV-1 cells
- protocol notes: PPARγ transactivation activity (GAL4 chimera luciferase reporter in CV-1 cells)
- Assay type: cell-based
- run parameters: compound at 10^−7 M (value without parentheses)
Can you tell me Relative activity for PPAR transactivation, γ for the items I'm about to list?

Consider the compound Cc1cc(C=CCc2sc(-c3ccc(C(F)(F)F)cc3)nc2C(C)C)ccc1OCC(=O)O and give its recorded Relative activity for PPAR transactivation, γ. 1 % of control

Consider the compound CCCCCCc1nc(-c2ccc(C(F)(F)F)cc2)sc1CC=Cc1ccc(OC(C)(C)C(=O)O)c(C)c1 and give its recorded Relative activity for PPAR transactivation, γ. 20 % of control

Consider the compound Cc1cc(C(=O)C=Cc2sc(-c3ccc(C(F)(F)F)cc3)nc2C(C)C)ccc1OCC(=O)O and give its recorded Relative activity for PPAR transactivation, γ. 0 % of control

Consider the compound CCCCCCc1nc(-c2ccc(C(F)(F)F)cc2)sc1CCC(=O)c1ccc(OCC(=O)O)c(C)c1 and give its recorded Relative activity for PPAR transactivation, γ. 1 % of control

Consider the compound CCCCCCc1nc(-c2ccc(C(F)(F)F)cc2)sc1CCC(=O)c1ccc(OC(C)(C)C(=O)O)c(C)c1 and give its recorded Relative activity for PPAR transactivation, γ. 31 % of control

Consider the compound CC(C)c1nc(-c2ccc(C(F)(F)F)cc2)sc1CCC(=O)c1ccc(OCC(=O)O)c(Cl)c1 and give its recorded Relative activity for PPAR transactivation, γ. 1 % of control

Could I get Relative activity for PPAR transactivation, γ for every one of these entries?
1. CCc1nc(-c2ccc(C(F)(F)F)cc2)sc1CCC(=O)c1ccc(OCC(=O)O)c(C)c1
2. CCCc1cc(C(=O)CCc2sc(-c3ccc(C(F)(F)F)cc3)nc2C(C)C)ccc1OCC(=O)O

1: 0 % of control; 2: 1 % of control

* * *

- assay system: PPARα (GAL4-hPPARα LBD) (Homo sapiens)
- Construct: Receptor expression plasmid (GAL4-hPPARα, LBD GAL4-hPPARγ LBD, GAL4-hPPARδ LBD); expressed in transfected cells; host or cells: CV-1 cells
- protocol notes: PPARα transactivation activity (GAL4 chimera luciferase reporter in CV-1 cells)
- Assay type: cell-based
- run parameters: compound at 10^−7 M (value without parentheses)
readout label: Relative activity for PPAR transactivation, α

Consider the molecule CCCc1cc(C(=O)CCc2sc(-c3ccc(C(F)(F)F)cc3)nc2C(C)C)ccc1OCC(=O)O [Example 18] and give its recorded Relative activity for PPAR transactivation, α. 0 % of control

Consider the molecule CC(C)c1nc(-c2ccc(C(F)(F)F)cc2)sc1CCC(=O)c1ccc(OC(C)(C)C(=O)O)c(Cl)c1 [Example 34] and give its recorded Relative activity for PPAR transactivation, α. 5 % of control

Consider the molecule CCCCCCc1nc(-c2ccc(C(F)(F)F)cc2)sc1CCC(=O)c1ccc(OC(C)(C)C(=O)O)c(C)c1 [Example 12] and give its recorded Relative activity for PPAR transactivation, α. 75 % of control

Consider the molecule Cc1cc(OC(C)(C)C(=O)O)ccc1C(=O)CCc1sc(-c2ccc(C(F)(F)F)cc2)nc1C(C)C [Example 16] and give its recorded Relative activity for PPAR transactivation, α. 62 % of control

Consider the molecule C=CCc1cc(C(=O)CCc2sc(-c3ccc(C(F)(F)F)cc3)nc2C(C)C)ccc1OCC(=O)O [Example 19] and give its recorded Relative activity for PPAR transactivation, α. 0 % of control

Could I get Relative activity for PPAR transactivation, α for every one of these entries?
1. Cc1cc(OCC(=O)O)ccc1C(=O)CCc1sc(-c2ccc(C(F)(F)F)cc2)nc1C(C)C [Example 14]
2. CCCCCCc1nc(-c2ccc(C(F)(F)F)cc2)sc1CCC(=O)c1ccc(OCC(=O)O)c(C)c1 [Example 11]
3. CCCCCCc1nc(-c2ccc(C(F)(F)F)cc2)sc1CC=Cc1ccc(OC(C)(C)C(=O)O)c(C)c1 [Example 45]
4. Cc1cc(C(=O)CCc2sc(-c3ccc(C(F)(F)F)cc3)nc2C(C)C)ccc1OC(C)C(=O)O (centres unmarked) [Example 43]

0 % of control
0 % of control
90 % of control
3 % of control

* * *

- assay system: PPARδ (GAL4-hPPARδ LBD) (Homo sapiens, UniProt Q03181)
- Construct: A chimeric receptor expression plasmid (GAL4-hPPARδ LBD), a reporter plasmid (UASx4-TK-LUC); expressed in transfected cells; host or cells: CV-1 cells
- Sequence (Q03181 211-439 limits assumed): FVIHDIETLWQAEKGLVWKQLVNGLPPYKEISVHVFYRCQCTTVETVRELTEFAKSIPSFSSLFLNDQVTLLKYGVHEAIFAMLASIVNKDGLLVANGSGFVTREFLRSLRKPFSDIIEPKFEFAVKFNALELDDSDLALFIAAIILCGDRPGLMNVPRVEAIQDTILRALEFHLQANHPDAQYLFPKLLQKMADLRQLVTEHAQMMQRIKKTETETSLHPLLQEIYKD
- protocol notes: PPARδ transactivation activity (GAL4 chimera luciferase reporter in CV-1 cells)
- Type: cell-based
- run parameters: compound at 10^−7 M (value without parentheses)
Can you tell me Relative activity for PPAR transactivation, δ for the items I'm about to list?

Worked examples, 3 compounds total:
Consider the compound C=CCc1cc(C(=O)CCc2sc(-c3ccc(C(F)(F)F)cc3)nc2C(C)C)ccc1OCC(=O)O and give its recorded Relative activity for PPAR transactivation, δ. 86 % of control

Consider the compound Cc1cc(C(=O)CCc2sc(-c3ccc(C(F)(F)F)cc3)nc2C(C)C)ccc1OC(C)C(=O)O (stereo not shown) and give its recorded Relative activity for PPAR transactivation, δ. 42 % of control

Consider the compound CCCCCCc1nc(-c2ccc(C(F)(F)F)cc2)sc1CCC(=O)c1ccc(OC(C)(C)C(=O)O)c(C)c1 and give its recorded Relative activity for PPAR transactivation, δ. 45 % of control

Consider now this further compound.
Consider the compound Cc1cc(C=CCc2sc(-c3ccc(C(F)(F)F)cc3)nc2C(C)C)ccc1OC(C)(C)C(=O)O and give its recorded Relative activity for PPAR transactivation, δ. 62 % of control

* * *

- assay system: PPARα (GAL4-hPPARα LBD) (Homo sapiens, UniProt Q07869)
- Construct: Receptor expression plasmid (GAL4-hPPARα, LBD GAL4-hPPARγ LBD, GAL4-hPPARδ LBD); expressed in transfected cells; host or cells: CV-1 cells
- Sequence (Q07869 239-466 limits assumed): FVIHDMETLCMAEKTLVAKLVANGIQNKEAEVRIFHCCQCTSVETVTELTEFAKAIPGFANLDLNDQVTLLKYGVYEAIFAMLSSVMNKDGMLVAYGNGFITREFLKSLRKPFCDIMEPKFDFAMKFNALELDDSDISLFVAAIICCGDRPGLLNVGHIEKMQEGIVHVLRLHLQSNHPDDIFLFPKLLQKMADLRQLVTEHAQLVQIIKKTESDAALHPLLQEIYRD
- protocol notes: PPARα transactivation activity (GAL4 chimera luciferase reporter in CV-1 cells)
- Assay type: cell-based
- run parameters: compound at 10^−7 M (value without parentheses)
Can you tell me Relative activity for PPAR transactivation, α for the items I'm about to list?

Worked examples, 4 molecules total:
Consider the molecule Cc1cc(C=CCc2sc(-c3ccc(C(F)(F)F)cc3)nc2C(C)C)ccc1OC(C)(C)C(=O)O [Example 13] and give its recorded Relative activity for PPAR transactivation, α. 63 % of control

Consider the molecule Cc1cc(C(=O)C=Cc2sc(-c3ccc(C(F)(F)F)cc3)nc2C(C)C)ccc1OCC(=O)O [Example 24] and give its recorded Relative activity for PPAR transactivation, α. 0 % of control

Consider the molecule CC(C)c1nc(-c2ccc(C(F)(F)F)cc2)sc1CCC(=O)c1ccc(OCC(=O)O)c(Cl)c1 [Example 33] and give its recorded Relative activity for PPAR transactivation, α. 0 % of control

Consider the molecule CCc1nc(-c2ccc(C(F)(F)F)cc2)sc1CCC(=O)c1ccc(OCC(=O)O)c(C)c1 [Example 47] and give its recorded Relative activity for PPAR transactivation, α. 0 % of control

Consider now this further molecule.
Consider the molecule Cc1cc(C=CCc2sc(-c3ccc(C(F)(F)F)cc3)nc2C(C)C)ccc1OCC(=O)O [Example 10] and give its recorded Relative activity for PPAR transactivation, α. 0 % of control
